The compounds listed here are annotated with their minimal effective dose at 10 mg/kg.
Tested on: Renal Hypertensive Rats
procedure details: Antihypertensive effects in renal hypertensive rats
Type: in vivo
condition context: Rattus norvegicus; Table 25; tested as sodium salt; intravenous, 10 mg/kg or less

Report minimal effective dose at 10 mg/kg for CCCCc1nc(Cl)c(CNC(=O)OCCC)n1Cc1ccc(-c2ccccc2C(=O)O)cc1
< 10 mg/kg

Report minimal effective dose at 10 mg/kg for CCCCc1nc(Cl)c(CC(=O)OC)n1Cc1ccc(N(Cc2ccccc2)C(=O)c2ccccc2NS(=O)(=O)C(F)(F)F)cc1
< 10 mg/kg

Report minimal effective dose at 10 mg/kg for CCCCc1nc(Cl)c(CNC(=O)OCC)n1Cc1ccc(-c2ccccc2C(=O)O)cc1
< 10 mg/kg

Report minimal effective dose at 10 mg/kg for CCCCc1nc(Cl)c(COC)n1Cc1ccc(-c2ccccc2C(=O)Nc2nnn[nH]2)cc1
< 10 mg/kg

Report minimal effective dose at 10 mg/kg for CCCCc1nc(CO)c(Cl)n1Cc1ccc(C(=O)c2ccccc2C(=O)O)cc1
< 10 mg/kg

Report minimal effective dose at 10 mg/kg for CCCCc1nc(Cl)c(COC)n1Cc1ccc(NC(=O)c2ccccc2C(=O)O)cc1
< 10 mg/kg

Report minimal effective dose at 10 mg/kg for CCCCc1nc(Cl)c(CO)n1Cc1ccc(C(=O)c2ccccc2C(=O)O)cc1
< 10 mg/kg

Report minimal effective dose at 10 mg/kg for CCCCc1nc(Cl)c(COC)n1Cc1ccc(C(=O)c2ccccc2C(=O)O)cc1
< 10 mg/kg
